Test system: PXR homodimer (NR concentration 270 nM)
Assay Explanation: PBM binding z-score (relative to random genomic background probes); higher = stronger binding; sequences stand for … in GC…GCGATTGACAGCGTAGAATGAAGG
Known PBM binding z-score of a selection of sequences

Biopolymer Sequence: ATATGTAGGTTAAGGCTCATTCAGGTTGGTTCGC
PBM binding z-score: 0.413

Biopolymer Sequence: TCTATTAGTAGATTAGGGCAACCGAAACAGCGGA
PBM binding z-score: 0.0465

Biopolymer Sequence: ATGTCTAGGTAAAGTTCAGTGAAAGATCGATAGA
PBM binding z-score: 1.98

Biopolymer Sequence: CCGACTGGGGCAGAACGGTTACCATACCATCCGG
PBM binding z-score: -0.492

Biopolymer Sequence: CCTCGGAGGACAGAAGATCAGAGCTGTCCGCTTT
PBM binding z-score: -0.786

Biopolymer Sequence: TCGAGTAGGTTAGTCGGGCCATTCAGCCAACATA
PBM binding z-score: -0.506

Biopolymer Sequence: ATCTCTAGTTAAAGATAGTTCAGTGAATGCAAAT
PBM binding z-score: 1.18

Biopolymer Sequence: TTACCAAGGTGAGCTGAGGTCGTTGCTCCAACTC
PBM binding z-score: 0.304

Biopolymer Sequence: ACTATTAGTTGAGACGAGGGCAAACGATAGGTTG
PBM binding z-score: 0.478

Biopolymer Sequence: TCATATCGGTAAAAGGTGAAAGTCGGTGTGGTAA
PBM binding z-score: 0.807

Biopolymer Sequence: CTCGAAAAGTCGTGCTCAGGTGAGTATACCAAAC
PBM binding z-score: 0.0183

Biopolymer Sequence: CGAACGAGGGCATGAGTTGACAGCAAATGCCGAT
PBM binding z-score: 0.0292

---

Tested on: PPARa:RXRa (NR concentration 270 nM, RXRa partner concentration 90 nM)
Assay Explanation: PBM binding z-score (relative to random genomic background probes); higher = stronger binding; sequences stand for … in GC…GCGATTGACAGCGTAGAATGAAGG

Biopolymer Sequence: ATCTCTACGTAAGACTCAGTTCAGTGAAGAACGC
PBM binding z-score: 0.0277

Biopolymer Sequence: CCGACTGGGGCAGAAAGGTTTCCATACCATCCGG
PBM binding z-score: -0.642

Biopolymer Sequence: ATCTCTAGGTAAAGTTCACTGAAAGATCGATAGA
PBM binding z-score: 3.64

Biopolymer Sequence: TCATATAGGTAGACAGGTGAAAGTCCGTAAGTTA
PBM binding z-score: 1.32

Biopolymer Sequence: GCCAGTTGGTCAGTAAAAGGTCACACACCGGTCG
PBM binding z-score: 4.36

Biopolymer Sequence: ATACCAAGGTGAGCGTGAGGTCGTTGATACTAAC
PBM binding z-score: 2.05

Biopolymer Sequence: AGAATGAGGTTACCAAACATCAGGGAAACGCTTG
PBM binding z-score: 3.21

Biopolymer Sequence: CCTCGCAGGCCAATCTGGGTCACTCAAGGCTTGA
PBM binding z-score: 3

Biopolymer Sequence: AGAATGAGGCTACCAAAGATCAGGGAAACGCTTG
PBM binding z-score: 0.361

Biopolymer Sequence: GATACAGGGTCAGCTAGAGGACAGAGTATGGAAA
PBM binding z-score: 4.58

Biopolymer Sequence: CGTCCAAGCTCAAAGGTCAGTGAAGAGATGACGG
PBM binding z-score: 3.99

Biopolymer Sequence: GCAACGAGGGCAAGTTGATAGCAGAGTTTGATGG
PBM binding z-score: 1.49

---

Test system: PPARg DBDmut:RXRa IVT, anti-PPARg (DBD mutation: PPARg1 K132A/R137A, NR concentration 270 nM, RXRa partner concentration 90 nM)
Assay Explanation: PBM binding z-score (relative to random genomic background probes); higher = stronger binding; sequences stand for … in GC…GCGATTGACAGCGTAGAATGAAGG
Mark condition met for reported PBM binding z-score of 0.4 or greater; mark condition not met for anything smaller.

Biopolymer Sequence: TCTAGTTGGTCACGGAGGTCAGACACGACGGGTA
Category: condition met
//
Biopolymer Sequence: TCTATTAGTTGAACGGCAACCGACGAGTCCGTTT
Category: condition not met
//
Biopolymer Sequence: CCTACTGGGCTAAAAAGGTCATTGATGCCGATAA
Category: condition not met
//
Biopolymer Sequence: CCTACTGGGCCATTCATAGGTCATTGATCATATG
Category: condition met
//
Biopolymer Sequence: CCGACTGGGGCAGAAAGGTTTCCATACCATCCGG
Category: condition not met

---

Tested on: PPARg:RXRa 90nM:30nM, anti-RXR (NR concentration 90 nM, RXRa partner concentration 30 nM)
Assay Explanation: PBM binding z-score (relative to random genomic background probes); higher = stronger binding; sequences stand for … in GC…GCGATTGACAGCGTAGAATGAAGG
Known PBM binding z-score of a selection of sequences

Biopolymer Sequence: CCTACTGGGCCGTCAGGTCATTGATATCAACGTT
PBM binding z-score: 1.15

Biopolymer Sequence: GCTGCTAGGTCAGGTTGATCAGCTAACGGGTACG
PBM binding z-score: 0.36

Biopolymer Sequence: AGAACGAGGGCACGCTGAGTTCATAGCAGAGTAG
PBM binding z-score: 1.47

Biopolymer Sequence: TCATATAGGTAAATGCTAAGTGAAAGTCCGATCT
PBM binding z-score: 2.9

Biopolymer Sequence: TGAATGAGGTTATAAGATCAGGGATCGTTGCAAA
PBM binding z-score: 1.28

Biopolymer Sequence: ACTAGCAGGCCAGGTTTGGGTCACTCAAACAAAG
PBM binding z-score: -0.199

Biopolymer Sequence: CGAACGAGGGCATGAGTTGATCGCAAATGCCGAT
PBM binding z-score: 0.937

Biopolymer Sequence: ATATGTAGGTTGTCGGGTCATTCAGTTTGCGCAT
PBM binding z-score: 2.63

Biopolymer Sequence: GTGACTGGGGCAAAGCAGGTTACCATAAGGTTGG
PBM binding z-score: 1.36

Biopolymer Sequence: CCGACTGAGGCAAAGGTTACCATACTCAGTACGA
PBM binding z-score: 6.88

Biopolymer Sequence: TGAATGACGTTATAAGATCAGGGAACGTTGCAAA
PBM binding z-score: 0.526

Biopolymer Sequence: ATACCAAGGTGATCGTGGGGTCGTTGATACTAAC
PBM binding z-score: 0.468

Biopolymer Sequence: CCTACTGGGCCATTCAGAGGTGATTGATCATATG
PBM binding z-score: 0.119

Biopolymer Sequence: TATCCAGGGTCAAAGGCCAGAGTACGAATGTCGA
PBM binding z-score: 6.94

Biopolymer Sequence: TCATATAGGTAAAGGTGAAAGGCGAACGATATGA
PBM binding z-score: 4.93

Biopolymer Sequence: ATCTCTAGGTAACAAGTTTAGTGAAAGAGAGGAC
PBM binding z-score: 1.37

Biopolymer Sequence: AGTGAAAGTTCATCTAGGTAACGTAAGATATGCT
PBM binding z-score: 4.84

Biopolymer Sequence: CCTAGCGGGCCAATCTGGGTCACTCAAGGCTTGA
PBM binding z-score: 1.17

Biopolymer Sequence: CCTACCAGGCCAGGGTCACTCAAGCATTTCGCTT
PBM binding z-score: 0.539

Biopolymer Sequence: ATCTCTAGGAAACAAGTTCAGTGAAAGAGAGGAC
PBM binding z-score: -0.00536

Biopolymer Sequence: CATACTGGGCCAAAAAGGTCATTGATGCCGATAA
PBM binding z-score: 3.11

Biopolymer Sequence: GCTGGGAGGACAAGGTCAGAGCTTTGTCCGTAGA
PBM binding z-score: 0.699

Biopolymer Sequence: GCTAGCAGGCCATTTGGGACACTCAATGACGGGC
PBM binding z-score: -0.835

Biopolymer Sequence: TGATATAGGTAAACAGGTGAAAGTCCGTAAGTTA
PBM binding z-score: 3.09

Biopolymer Sequence: CGTCCAAGGTCAAGGACAGTGAAAGAGACTCGAA
PBM binding z-score: 3.73

Biopolymer Sequence: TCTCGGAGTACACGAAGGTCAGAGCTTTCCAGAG
PBM binding z-score: 1.7

---

System: PPARg:RXRa DBDmut IVT, anti-RXR (DBD mutation: RXRa K156A/R161A, NR concentration 270 nM, RXRa partner concentration 90 nM)
Assay Explanation: PBM binding z-score (relative to random genomic background probes); higher = stronger binding; sequences stand for … in GC…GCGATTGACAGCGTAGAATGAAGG
Readout Kind: PBM binding z-score

Biopolymer Sequence: TCTATTAGTTGATTAGGCCAACCGAAACAGCGGA
Numeric Readout: 2.31

Biopolymer Sequence: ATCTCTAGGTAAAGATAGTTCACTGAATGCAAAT
Numeric Readout: 2.05

Biopolymer Sequence: TCTCGGAGGACACGAAGGGCAGAGCTTTCCAGAG
Numeric Readout: 1.13

Biopolymer Sequence: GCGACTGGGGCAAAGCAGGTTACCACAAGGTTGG
Numeric Readout: 4.37

Biopolymer Sequence: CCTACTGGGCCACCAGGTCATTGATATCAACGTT
Numeric Readout: 4.8

Biopolymer Sequence: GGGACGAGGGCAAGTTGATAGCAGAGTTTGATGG
Numeric Readout: 2.39
